- MEASUREMENT TARGET: T1, mouse programmed cell death protein 1 Fc fusion protein (mPD-1-Fc), mPD-1 C60S (aa 25-167) (Mus musculus, UniProt Q02242, stabilised)
- T1 construct: not cleaved; source: Expi293F, purified (Protein A, SEC; dimeric fraction); not shown: Fc (human), C-terminal, kept
- ASSAY PROCEDURE: SPR; Carterra LSA; Fab from the ammonium sulfate precipitate of the culture supernatant immobilised on a NiHC200M chip; hPD-1 (1-1024 nM) or mPD-1-Fc (4-1024 nM) as analyte, fourfold dilution series, no regeneration; HBS-EP pH 7.4, 25 °C; medians over the spots of a construct, KD = koff/kon
- CONDITION SUMMARY: one partner purified
Exercise: for every item that follows, state its recorded koff.
Respond numerically; units are s⁻¹ and should not be typed.

Q: Specify reported koff for the binder shown: toripalimab Fab L.H98Y (Fab, V domains shown, as the heavy chain of Sm3; light chain of Sm3 with this change; numbers count from the chain's first residue; source: Brevibacillus, culture supernatant (ammonium sulfate precipitate); not shown: 6xHis, C-terminal, kept; 6xHN, C-terminal, kept) VH: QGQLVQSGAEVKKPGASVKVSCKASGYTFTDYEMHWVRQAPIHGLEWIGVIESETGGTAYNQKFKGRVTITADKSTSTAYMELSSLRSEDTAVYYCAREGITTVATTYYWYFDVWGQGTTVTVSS VL: DVVMTQSPLSLPVTLGQPASISCRSSQSIVHSNGNTYLEWYLQKPGQSPQLLIYKVSNRFSGVPDRFSGSGSGTDFTLKISRVEAEDVGVYYCFQGSYVPLTFGQGTKLEIK
Ans: 0.0148

Q: Specify reported koff for the binder shown: toripalimab Fab L.P100E (Fab, V domains shown, as the heavy chain of Sm3; light chain of Sm3 with this change; numbers count from the chain's first residue; source: Brevibacillus, culture supernatant (ammonium sulfate precipitate); not shown: 6xHis, C-terminal, kept; 6xHN, C-terminal, kept) VH: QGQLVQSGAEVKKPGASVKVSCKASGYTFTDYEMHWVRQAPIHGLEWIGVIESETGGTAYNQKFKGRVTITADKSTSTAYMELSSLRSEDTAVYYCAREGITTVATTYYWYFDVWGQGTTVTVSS VL: DVVMTQSPLSLPVTLGQPASISCRSSQSIVHSNGNTYLEWYLQKPGQSPQLLIYKVSNRFSGVPDRFSGSGSGTDFTLKISRVEAEDVGVYYCFQGSHVELTFGQGTKLEIK
Ans: 0.000491

Q: Specify reported koff for the binder shown: toripalimab Fab L.V99A (Fab, V domains shown, as the heavy chain of Sm3; light chain of Sm3 with this change; numbers count from the chain's first residue; source: Brevibacillus, culture supernatant (ammonium sulfate precipitate); not shown: 6xHis, C-terminal, kept; 6xHN, C-terminal, kept) VH: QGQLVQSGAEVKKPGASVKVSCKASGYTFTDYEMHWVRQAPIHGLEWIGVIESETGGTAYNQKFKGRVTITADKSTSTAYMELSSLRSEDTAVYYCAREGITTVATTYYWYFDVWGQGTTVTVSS VL: DVVMTQSPLSLPVTLGQPASISCRSSQSIVHSNGNTYLEWYLQKPGQSPQLLIYKVSNRFSGVPDRFSGSGSGTDFTLKISRVEAEDVGVYYCFQGSHAPLTFGQGTKLEIK
Ans: 0.000353
